System: Blood Glucose
run description: Hypoglycemic effect in glucose-loaded fasted rats (blood glucose)
Format: in vivo, rat (Wistar-strain)
condition summary: Table 2; 100 mg/kg oral, 2 h; control 133 ± 6
I would appreciate it if you labelled entries True when Blood Glucose Level is 100 mg/dL or higher, otherwise False.

# input Please check the record `CCCCN1C(=O)NC(=O)C1=O` and state if its Blood Glucose Level is at or above 100 mg/dL.
# output False

# input Please check the record `CC(C)(C)N1C(=O)NC(=O)C1=O` and state if its Blood Glucose Level is at or above 100 mg/dL.
# output True

# input Please check the record `CCCCCCCCCCN1C(=O)NC(=O)C1=O` and state if its Blood Glucose Level is at or above 100 mg/dL.
# output True

# input Please check the record `CC(C)CN1C(=O)NC(=O)C1=O` and state if its Blood Glucose Level is at or above 100 mg/dL.
# output False

# input Please check the record `CN1C(=O)C(=O)N(C)C1=O` and state if its Blood Glucose Level is at or above 100 mg/dL.
# output True

* * *

run description: Acute toxicity test (oral)
Parameters: species or system mouse (ddY-strain)
condition summary: mouse, in vivo, male ddY mice, fasted 20 h, deaths over 7 days
observed property: LD50 at 168 h

# input Item under review: `CN1C(=O)NC(=O)C1=O` . Reported LD50 at 168 h?
# output ~900 mg/kg

# input Item under review: `CCN1C(=O)NC(=O)C1=O` . Reported LD50 at 168 h?
# output ~700 mg/kg

# input Item under review: `O=C1NC(=O)N(Cc2ccccc2)C1=O` . Reported LD50 at 168 h?
# output ~1000 mg/kg

* * *

Tested on: Total Serum Cholesterol
run description: Hypolipidemic effect: total serum cholesterol
Type: in vivo, rat (Wistar-strain)
condition summary: 100 mg/kg oral, 2 h; control 44 ± 2 (compounds 4-12), 41 ± 1 (compounds 15-29)
observed property: Total Serum Cholesterol Level (mg/dL)
Write the number in mg/dL without appending the unit.

# input Item under review: `O=C1NC(=O)N(Cc2cccc(F)c2)C1=O` . Reported Total Serum Cholesterol Level?
# output 37

# input Item under review: `Cc1cccc(CN2C(=O)NC(=O)C2=O)c1` . Reported Total Serum Cholesterol Level?
# output 36

# input Item under review: `O=C1NC(=O)N(Cc2ccc(F)cc2)C1=O` . Reported Total Serum Cholesterol Level?
# output 34

# input Item under review: `Cc1ccc(CN2C(=O)NC(=O)C2=O)cc1` . Reported Total Serum Cholesterol Level?
# output 37

# input Item under review: `O=C1NC(=O)N(C2CCCCC2)C1=O` . Reported Total Serum Cholesterol Level?
# output 39

# input Item under review: `O=C1NC(=O)N(Cc2ccccc2F)C1=O` . Reported Total Serum Cholesterol Level?
# output 33

# input Item under review: `CN1C(=O)C(=O)N(C)C1=O` . Reported Total Serum Cholesterol Level?
# output 39

# input Item under review: `CCCCN1C(=O)NC(=O)C1=O` . Reported Total Serum Cholesterol Level?
# output 39

* * *

Test system: Blood Glucose
run description: Hypoglycemic effect in glucose-loaded fasted rats (blood glucose)
Assay type: in vivo, rat (Wistar-strain)
condition summary: Table 2; 100 mg/kg oral, 2 h; control 133 ± 6
observed property: Blood Glucose Level (mg/dL)
Write the number in mg/dL without appending the unit.

# input Item under review: CCCCNC(=O)NS(=O)(=O)c1ccc(C)cc1 [Tolubutamide, reference compound] . Reported Blood Glucose Level?
# output 48

# input Item under review: `CCN1C(=O)NC(=O)C1=O` . Reported Blood Glucose Level?
# output 100

# input Item under review: `CCN1C(=O)C(=O)N(C2CCCC2)C1=O` . Reported Blood Glucose Level?
# output 116

# input Item under review: `O=C1NC(=O)N(C2CCCCC2)C1=O` . Reported Blood Glucose Level?
# output 101
